- assay_explanation: Solubility determination in a variety of solvents
- Format: physicochemical
- run_parameters: organic solvent or mixture; solvent Toluene, 23° C.; read-out: Solubility at 23° C.
experimental_readout: solubility

Give recorded solubility. C[C@H](CN(C(=O)c1ccc(C#N)cc1)c1ccccn1)N1CCN(c2cccc3c2OCCO3)CC1.Cl [Formula I] 8000 µg/mL

====

- assay_explanation: Solubility determination in a variety of solvents
- Type: physicochemical
- run_parameters: organic solvent or mixture; solvent Toluene, 50° C.; read-out: Solubility at 50° C.
experimental_readout: solubility (mg/mL)
Supply the numeric figure in mg/mL, leaving out any unit text.

Give recorded solubility. C[C@H](CN(C(=O)c1ccc(C#N)cc1)c1ccccn1)N1CCN(c2cccc3c2OCCO3)CC1.Cl 14

====

- assay_explanation: Solubility determination in a variety of solvents
- Type: physicochemical
- run_parameters: organic solvent or mixture; solvent Acetone, 50° C.; read-out: Solubility at 50° C.
experimental_readout: solubility (mg/mL)
Supply the numeric figure in mg/mL, leaving out any unit text.

Give recorded solubility. C[C@H](CN(C(=O)c1ccc(C#N)cc1)c1ccccn1)N1CCN(c2cccc3c2OCCO3)CC1.Cl 9

====

- assay_explanation: Solubility determination in a variety of solvents
- Type: physicochemical
- run_parameters: organic solvent or mixture; solvent Heptane, 50° C.; read-out: Solubility at 50° C.
experimental_readout: solubility (µg/mL)
Supply the numeric figure in µg/mL, leaving out any unit text.

Give recorded solubility. C[C@H](CN(C(=O)c1ccc(C#N)cc1)c1ccccn1)N1CCN(c2cccc3c2OCCO3)CC1.Cl 1000

====

- assay_explanation: Solubility determination in a variety of solvents
- Assay type: physicochemical
- run_parameters: organic solvent or mixture; solvent THF, 50° C.; read-out: Solubility at 50° C.
experimental_readout: solubility
Dear colleague, please send the value followed by its unit.

Give recorded solubility. C[C@H](CN(C(=O)c1ccc(C#N)cc1)c1ccccn1)N1CCN(c2cccc3c2OCCO3)CC1.Cl [Formula I] 5000 µg/mL

====

- assay_explanation: Solubility determination in a variety of solvents
- Format: physicochemical
- run_parameters: organic solvent or mixture; solvent 2-Propanol, 50° C.; read-out: Solubility at 50° C.
experimental_readout: solubility
Dear colleague, please send the value followed by its unit.

Give recorded solubility. C[C@H](CN(C(=O)c1ccc(C#N)cc1)c1ccccn1)N1CCN(c2cccc3c2OCCO3)CC1.Cl 6000 µg/mL

====

- assay_explanation: Solubility determination in a variety of solvents
- Assay type: physicochemical
- run_parameters: organic solvent or mixture; solvent EtOH, 50° C.; read-out: Solubility at 50° C.
experimental_readout: solubility (mg/mL)
Supply the numeric figure in mg/mL, leaving out any unit text.

Give recorded solubility. C[C@H](CN(C(=O)c1ccc(C#N)cc1)c1ccccn1)N1CCN(c2cccc3c2OCCO3)CC1.Cl [Formula I] 40

====

- assay_explanation: Solubility determination in a variety of solvents
- Format: physicochemical
- run_parameters: organic solvent or mixture; solvent CH3CN, 23° C.; read-out: Solubility at 23° C.
experimental_readout: solubility (mg/mL)
Supply the numeric figure in mg/mL, leaving out any unit text.

Give recorded solubility. C[C@H](CN(C(=O)c1ccc(C#N)cc1)c1ccccn1)N1CCN(c2cccc3c2OCCO3)CC1.Cl [Formula I] 18

====

- assay_explanation: Solubility determination in a variety of solvents
- Format: physicochemical
- run_parameters: organic solvent or mixture; solvent EtOH, 23° C.; read-out: Solubility at 23° C.
- Method: The solubility of the compound of Formula I in a variety of solvents was measured according to routine methods at 23° C. and 50° C.
experimental_readout: solubility (mg/mL)
Supply the numeric figure in mg/mL, leaving out any unit text.

Give recorded solubility. C[C@H](CN(C(=O)c1ccc(C#N)cc1)c1ccccn1)N1CCN(c2cccc3c2OCCO3)CC1.Cl 19

All figures here come from patent US20070027162A1.
